assay: log P by LC-MS, method [b], acid range pH 2.7; assay type: physicochemical; conditions: pH 2.7
// values below are reported log p

The examples below pair each entry with its known result.
[[record]]
compound = "CC1CC(Nc2nc(Nc3cccc(N4CCCC4=O)c3)ncc2Cl)C1 (centres unmarked) [Example 299]"
quantityname = "log p"
result = "3.25[b]"

[[record]]
compound = "CC1CC(C)N(c2cccc(Nc3ncc(Cl)c(N(C)C4CC4)n3)c2)C1=O (centres unmarked) [Example 178]"
quantityname = "log p"
result = "2.61[b]"

[[record]]
compound = "CC1(Nc2nc(Nc3cccc(N4CCCC4=O)c3)ncc2C(F)(F)F)CC1 [Example 252]"
quantityname = "log p"
result = "2.44[b]"


INPUT: What measured log p goes with COCC(C)Nc1nc(Nc2ccc(N3C(=O)OCC3C)cc2)ncc1Br (centres unmarked) [Example 4] ?
OUTPUT: 1.61[b]

INPUT: What measured log p goes with CC1(C)CC(=O)N(c2cccc(Nc3ncc(Cl)c(NC4CC4(C)C)n3)c2)C1=O (centres unmarked) [Example 122] ?
OUTPUT: 2.42[b]

The origin of these recorded values is patent US20110245242A1.
